Biological target: cathepsin K (mature, mCatK) (Homo sapiens)
Construct: gene CTSK; mature CatK, model residues Ala1 to Met215 (from recombinant zymogen expressed in Pichia pastoris)
Sequence (P43235 115-329): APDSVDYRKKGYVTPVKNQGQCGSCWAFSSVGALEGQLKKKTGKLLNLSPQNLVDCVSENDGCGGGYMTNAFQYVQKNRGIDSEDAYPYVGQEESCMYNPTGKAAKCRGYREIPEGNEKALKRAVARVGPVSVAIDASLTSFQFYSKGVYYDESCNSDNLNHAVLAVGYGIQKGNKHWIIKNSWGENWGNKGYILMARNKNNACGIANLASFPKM
Test: crystal structure […] Å (also with iCatK, 7QBM); Ki by fluorogenic enzyme assay (Morrison)
Type: biochemical
Details: read-out: mCatK inhibition^a / Ki
pKi: −log10 of the molar value.
measured metric: pKi

>>> experimental_result("CN(Cc1ccccc1)C(=O)CN(C#N)NC(=O)OC(C)(C)C [Gü2602]")
10.89
